- TEST_PROTOCOL: amyloid nucleation score (Sup35N fusion, yeast selection) (log enrichment); library NNK3; higher = more nucleation; inactive = no reads after selection;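 note: zero at mode of non-aggregating sequences after 7 days selection at 30°C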
READOUT_TYPE: amyloid nucleation score

Before answering, review these 5 worked examples.
{"columns": ["SUBSTANCE", "amyloid nucleation score"],
 "data": [
  ["MPNYNLSGLNWVRCG", "inactive"],
  ["LAALLKASWVSHVVSWNKRT", "inactive"],
  ["PRIQKSWVGAM", "inactive"],
  ["MFVSLMKQFM", 0.931],
  ["GISSKFRSPNRGNCYYRDIL", "inactive"]
]}

stdin: // amyloid nucleation score lookup, key: `CFIMLWCTISFIILVSLVTD`
stdout: 0.671

stdin: // amyloid nucleation score lookup, key: `VFNMLGFSDY`
stdout: inactive

stdin: // amyloid nucleation score lookup, key: `SLSYFLSFS`
stdout: 1.14

stdin: // amyloid nucleation score lookup, key: `LLIIGLKSAVGVW`
stdout: inactive

stdin: // amyloid nucleation score lookup, key: `FFSTLVYNRRIVCWFRSGR`
stdout: -1.49

stdin: // amyloid nucleation score lookup, key: `GKIAVS`
stdout: inactive

* * *

- TEST_PROTOCOL: amyloid nucleation score (Sup35N fusion, yeast selection) (log enrichment); library NNK1; higher = more nucleation; inactive = no reads after selection
READOUT_TYPE: amyloid nucleation score

Before answering, review these 4 worked examples.
{"columns": ["MONOMER_SEQUENCE", "READOUT_TYPE", "RESULT_VALUE"],
 "data": [
  ["SMVNNWIMDCLWAILWVIDI", "amyloid nucleation score", "inactive"],
  ["YCLDGAFALVVNSLWLITAA", "amyloid nucleation score", "inactive"],
  ["SFVIYSKKCKNGSVNTVACS", "amyloid nucleation score", 0.142],
  ["RPVWHSFHMVFWNSASY", "amyloid nucleation score", 0.172]
]}

stdin: // amyloid nucleation score lookup, key: `YDTNDGFMTGVQ`
stdout: -1.56

* * *

- TEST_PROTOCOL: amyloid nucleation score (Sup35N fusion, yeast selection) (log enrichment); library NNK2; higher = more nucleation; inactive = no reads after selection
READOUT_TYPE: amyloid nucleation score
Lab note: jot the number down without any unit.

stdin: // amyloid nucleation score lookup, key: `YVSNLEK`
stdout: -0.073

stdin: // amyloid nucleation score lookup, key: `FFTANPV`
stdout: 0.335

stdin: // amyloid nucleation score lookup, key: `LIIDQVIMNGINVPYTYLIY`
stdout: 4.15

stdin: // amyloid nucleation score lookup, key: `RVGVIFRKYWSFRYFSCKEN`
stdout: -0.59

stdin: // amyloid nucleation score lookup, key: `DYQGGCSILTSEDEPYEVAC`
stdout: 1.56

stdin: // amyloid nucleation score lookup, key: `NFCALSKCT`
stdout: -0.618

stdin: // amyloid nucleation score lookup, key: `QVSFEFNRLMGCMLKMTMMT`
stdout: -0.308

stdin: // amyloid nucleation score lookup, key: `WGLHYSRYHLHV`
stdout: -0.494

stdin: // amyloid nucleation score lookup, key: `WKMWRVKAVNR`
stdout: 0.935

stdin: // amyloid nucleation score lookup, key: `FSVLILFMLIWNNGCYLKED`
stdout: 1.94

stdin: // amyloid nucleation score lookup, key: `MYVDLKLSYNHSPATLW`
stdout: 5.22

stdin: // amyloid nucleation score lookup, key: `LFGSKVHSSWRPSCLFTSAV`
stdout: 0.377

stdin: // amyloid nucleation score lookup, key: `MSRKWGGSKRCNGCPPKLVQ`
stdout: 1.08

stdin: // amyloid nucleation score lookup, key: `GNQRFVFVLRMGTVGPLHMF`
stdout: 0.836

stdin: // amyloid nucleation score lookup, key: `DRICRVDIYDVRDQSYTFSG`
stdout: -0.279

stdin: // amyloid nucleation score lookup, key: `VRLFVFSKVKGLIMVNCSWK`
stdout: -1.35

stdin: // amyloid nucleation score lookup, key: `CVFVPIKLGGDGLTVYLKCI`
stdout: -0.996

stdin: // amyloid nucleation score lookup, key: `ALEFNT`
stdout: 4.14

stdin: // amyloid nucleation score lookup, key: `ALFQECYPGMGNYQGSVATT`
stdout: 1.09

stdin: // amyloid nucleation score lookup, key: `MSRIRTTTMNSGFGGYTPVL`
stdout: 3.06

stdin: // amyloid nucleation score lookup, key: `VVSKVLNKYF`
stdout: 0.189

stdin: // amyloid nucleation score lookup, key: `VWHVDTAVLTRA`
stdout: 1.08

stdin: // amyloid nucleation score lookup, key: `TLWVWVCCFQDWCSVSRGGR`
stdout: 8.89

stdin: // amyloid nucleation score lookup, key: `ISFLSNR`
stdout: 1.58

stdin: // amyloid nucleation score lookup, key: `IFSWTLEV`
stdout: 0.249

stdin: // amyloid nucleation score lookup, key: `IYTTYKRTFRS`
stdout: -0.553

stdin: // amyloid nucleation score lookup, key: `VLDYSTHIEFGQRRVVGFAR`
stdout: -0.321

stdin: // amyloid nucleation score lookup, key: `LGYMVVK`
stdout: -1.35

stdin: // amyloid nucleation score lookup, key: `ITIRCGSKDSFMNIGLGKMG`
stdout: 4.09

stdin: // amyloid nucleation score lookup, key: `ASSALHRVMVLAVTFFRHSS`
stdout: 0.839

stdin: // amyloid nucleation score lookup, key: `ETVDSESFSGCGIVFLRGSN`
stdout: -0.908

stdin: // amyloid nucleation score lookup, key: `LYRFAMLLRLGARSVNMLGK`
stdout: -0.573

stdin: // amyloid nucleation score lookup, key: `VDYYDIQCL`
stdout: 0.649

stdin: // amyloid nucleation score lookup, key: `WGLSRNSNIGHRVLIVAGNL`
stdout: -0.683

stdin: // amyloid nucleation score lookup, key: `GYDVERDNFDCVVTKDELFW`
stdout: -0.427

stdin: // amyloid nucleation score lookup, key: `FWEKSSKVFW`
stdout: 3.33

stdin: // amyloid nucleation score lookup, key: `CKTLVSGGL`
stdout: -0.344
